Hello, the source for this data is PubChem BioAssay (NCI), in case you need it.

assay: NCI Yeast Anticancer Drug Screen. Data for the bub3 strain (AID 167); settings: S. cerevisiae bub3 mutant strain, at 5.0 µM (retest, dose inferred, filed as 0.5)
About 79,000 compounds went through this panel and 15% of them were active in at least one assay; those are over-represented in the sample as a whole. Active and inactive are the calls of the source. Rule as the data show it: active = growth inhibition above about 70%; inactive = the rest.
Possible outcomes: class 1 for active, class 0 for inactive

Compound: COC(=O)[C@@]12OC[C@]34[C@H]([C@@H](O)[C@@H]1O)[C@@]1(C)[C@H](O)C(=O)C=C(C)[C@@H]1C[C@H]3OC(=O)C(OC(C)=O)[C@@H]24 (some centres not stated)
Group Label: class 0
//
Compound: O=C(O)c1ccccc1Cc1ccc2c(c1)Cc1ccccc1-2
Group Label: class 0
//
Compound: CC(=O)OC12CC(C(F)(F)F)(C(F)(F)F)OC1(OC(C)=O)CC(C(F)(F)F)(C(F)(F)F)O2 (configuration not stated)
Group Label: class 0
//
Compound: CCCCCCC(C)OC(=O)/C=C/c1ccccc1 (configuration not stated)
Group Label: class 0
//
Compound: Oc1ccccc1C(c1ccccc1O)C(Cl)(Cl)Cl
Group Label: class 1
//
Compound: O=C(CNC(=O)c1ccccc1)Oc1c(Cl)c(Cl)c(Cl)c(Cl)c1Cl
Group Label: class 0
//
Compound: CCCCCCCCC(=O)NCCN(CCN)C(=O)CCCCCCCC
Group Label: class 0
//
Compound: Cc1ccc(NC(=O)c2cc3ccccc3c(N=Nc3cc(S(=O)(=O)O)ccc3O)c2O)c(C)c1
Group Label: class 0
//
Compound: Nc1ncnc2c1c(-c1ccccc1)cn2-c1ccc(Cl)cc1
Group Label: class 0
//
Compound: COc1ccc(OC)c(C(Cc2ccnc3ccccc23)Cc2ccnc3ccccc23)c1
Group Label: class 0
//
Compound: COC(=O)c1c(C(N)=O)c(C)n(NC(=O)c2ccccc2)c1C
Group Label: class 0
//
Compound: N#Cc1snc2sc(=O)sc12
Group Label: class 1
//
Compound: O=C(Nc1ccccc1-c1nn(C(=S)Nc2ccccc2)c(=S)n(C(=S)Nc2ccccc2)c1=O)C(F)(F)F
Group Label: class 0
//
Compound: O=Nc1cc(-c2ccccc2)c2ccccc2c1O
Group Label: class 0
//
Compound: CCCCc1c2c(nc3c1CCc1cc4cc5c(nc4nc1-3)-c1nc3c(c(CCCC)c1CC5)CCC/C3=N/OC)/C(=N\OC)CCC2
Group Label: class 0
//
Compound: O=c1cc(-c2ccccc2)[nH]c2ccc(N3CCCC3)cc12
Group Label: class 0
//
Compound: CCCCNC(C)(C)COC(=O)/C=C/c1ccc(OCCCC)cc1
Group Label: class 0
//
Compound: O=CNc1ccc2c(c1)Cc1cc(NC=O)ccc1-2
Group Label: class 0
//
Compound: CCCCCCCCCCCCCCCCOP(=O)([O-])OCC[N+](C)(C)C
Group Label: class 1
//
Compound: O=C1Oc2ccccc2C1c1ccccc1 (configuration not stated)
Group Label: class 0
//
Compound: CCCCCCC(=O)OCc1ccc(-c2ccccc2)cc1
Group Label: class 1
//
Compound: CC(C)(C)CC(C)(C)c1ccc(OCCSC(=N)N)cc1
Group Label: class 1

====

assay: NCI Yeast Anticancer Drug Screen. Data for the mlh1 rad18 strain (AID 175); conditions: S. cerevisiae mlh1 rad18 strain growth inhibition; at 5.0 µM (retest, dose inferred, filed as 0.5); hits give high values
About 79,000 compounds went through this panel and 15% of them were active in at least one assay; those are over-represented in the sample as a whole.
Observed Property: growth inhibition (%)

Compound: Cc1ccc(O)c(Cc2ccccc2Cl)c1
Observed Property: growth inhibition
Readout Value: -5
//
Compound: CS/C(N)=N/NC(=O)CCC(=O)Nc1cc(Cl)c(Cl)cc1Cl
Observed Property: growth inhibition
Readout Value: 5
//
Compound: O=C(NNc1nc(-c2ccccc2)cs1)Nc1ccccc1
Observed Property: growth inhibition
Readout Value: 48
//
Compound: N#Cc1c(-c2ccc(Cl)cc2)c(-c2ccc(Cl)cc2)nn(CCOC(=O)CCC(=O)O)c1=O
Observed Property: growth inhibition
Readout Value: 8
//
Compound: O=C1C=CC(=O)c2c1oc1ccccc21
Observed Property: growth inhibition
Readout Value: 23
//
Compound: COC1C=COC2(C)Oc3c(C)c(O)c4c(O)c(c(C5SCCS5)c(O)c4c3C2=O)NC(=O)/C(C)=C\C=CC(C)C(O)C(C)C(O)C(C)C(OC(C)=O)C1C (stereo unspecified)
Observed Property: growth inhibition
Readout Value: 4
